# protocol_description: in vitro
# condition_info: human, hela cells, % viability
measured_attribute: viability at 28.5 h, 10 µM (%)
Kindly provide the numeric value in % only, without the unit symbol.

Here's what some known entries look like.
molecule	viability at 28.5 h, 10 µM (%)
Cc1cccn2c(CN3CCC(O)CC3)c(C(=O)N3CCCCC3)nc12	104
Cc1ccc(NC(=O)/C(C#N)=C/c2ccc(-c3ccccc3C(=O)O)o2)cc1Cl	102
CC(=O)NCCNC(=O)c1ccc(-c2ccccc2)nc1NCCc1ccccn1	91.3
Cc1nc(S(=O)(=O)CCn2cccn2)n(CC2CCCO2)c1C (stereo not drawn)	96.6
Cc1cccc(NC(=O)CSc2ncnc3sc4c(c23)CCC(C)C4)c1 (stereo not drawn)	102

Next molecule, please.
stdin: Which viability at 28.5 h, 10 µM is listed for CC(NC(=O)C1CCN(CCCN(C)S(C)(=O)=O)CC1)c1cccc2ccccc12 (stereo not drawn) ?
stdout: 104

----------
# protocol_description: in vitro
# condition_info: human, hela cells, % viability
Each item that follows carries a reported viability at 28.5 h, 10 µM.

molecule	recorded_value
O=C(Cc1ccc(F)cc1)NCc1nnc(-c2cccs2)o1 [CBK284640]	82.6%
COc1cc(Nc2cncc(-c3ccc(O)cc3)n2)c(Cl)cc1C(=O)NCC(F)(F)F [CBK126470]	82.9%
Nc1c2c(nc3ccccc13)CCCC2O (centres unmarked) [CBK008271F]	95.7%
Cc1cc(C)cc(NC(=O)CSc2ncnc3c2oc2ccccc23)c1 [CBK287394]	90.5%

stdin: Bench note: what viability at 28.5 h, 10 µM did CCOc1ccccc1C(=O)Nc1cnc(-c2cccc(C)c2)c(-c2ccc(N)cc2)n1 [CBK036783] show?
stdout: 107%

----------
# protocol_description: in vitro
# condition_info: human, hela cells, % viability
measured_attribute: viability at 28.5 h, 10 µM (%)
Note: unit % is implicit; provide only the numeric part.

Below, 6 compounds whose answers are already recorded.
compound	viability at 28.5 h, 10 µM [%]
Cc1csc(-c2cnc(N3CCOCC3)c3nccn23)c1 [CBK091287]	87.5
Cn1cc(CCNC(=O)N(Cc2ccccn2)CC2CCCO2)cn1 (stereo not drawn) [CBK306973]	99.2
Cc1nn(C)c(C)c1S(=O)(=O)n1ccn(-c2ccc(N(C)C)cc2)c1=O [CBK106610]	93
COc1ccc(-c2noc([C@@H]3C[C@H](NS(=O)(=O)Cc4ccccc4)CN3C)n2)cc1 [CBK288863]	93.2
c1coc(-c2nnc(Nc3nc4cc5c(cc4s3)OCO5)o2)c1 [CBK287492]	89.8
Cc1ccc(Nc2nc(Cn3nc(C(=O)O)c4ccccc4c3=O)cs2)cc1 [CBK296989]	86.7

Next, consider the following compound.
stdin: Data request, read-out viability at 28.5 h, 10 µM, for CSCCN1CCCC2(CCN(C(=O)c3ccoc3)C2)C1 (stereo not drawn) [CBK132835]
stdout: 88.7

----------
# protocol_description: in vitro
# condition_info: human, hela cells, % viability
Listed below: viability at 28.5 h, 10 µM values for each entry.
# output: bare number, implied unit %

Past entries and their recorded results:
compound	measured_attribute	recorded_value
Cn1nccc1NC(=O)Nc1ccc(CN2CCOC2=O)cc1 [CBK306279]	viability at 28.5 h, 10 µM	88
Cc1ccc(S(=O)(=O)NCC(=O)Nc2cnc(-c3cccc(C)c3)c(-c3ccc(N)cc3)n2)cc1 [CBK037600]	viability at 28.5 h, 10 µM	83.5
O=C(NCCO)C1CCCN(S(=O)(=O)c2ccc3ccccc3c2)C1 (stereo not drawn) [CBK270090]	viability at 28.5 h, 10 µM	83.7
O=C(c1ccccc1F)N1C2CCC1CC(O)(c1cccnc1F)C2 (stereo not drawn) [CBK284420]	viability at 28.5 h, 10 µM	98.4
COC(=O)c1ccc(/C=N/NC(=O)CCc2c(C)n[nH]c2C)cc1 [CBK262904]	viability at 28.5 h, 10 µM	117
Oc1ccc2cc(-c3cccc(C(F)(F)F)c3)cnc2n1 [CBK081285]	viability at 28.5 h, 10 µM	59.5

stdin: Which viability at 28.5 h, 10 µM value is on record for COc1cc(C2C3=C(CC(C)(C)CC3=O)OC3=C2C(=O)CC(C)(C)C3)ccc1OCC(=O)O [CBK262379] ?
stdout: 94.8

stdin: // viability at 28.5 h, 10 µM lookup, key: COc1cc(C(=O)N2CCCC3(CCN(C(=O)c4ccoc4)C3)C2)cc(OC)c1OC (stereo not drawn) [CBK131637]
stdout: 114

stdin: Can you share its viability at 28.5 h, 10 µM? I mean this compound: Cc1ccc(C(C)(C)CC(C)NC2C3CC4CC(C3)CC2C4)o1 (stereo not drawn) [CBK262871]
stdout: 93.9

stdin: Bench note: what viability at 28.5 h, 10 µM did Cn1ccnc1CNc1nc(C(C)(C)C)nc2c1cnn2C [CBK306894] show?
stdout: 100

stdin: Item CCOC(=O)C1(C2CCCCC2)CCN(C(=O)c2ccc(S(N)(=O)=O)cc2)CC1 [CBK137105] has what recorded viability at 28.5 h, 10 µM?
stdout: 93.2

stdin: Bench note: what viability at 28.5 h, 10 µM did CC1(C)CC(=O)c2sc(NC(=O)Nc3ccccc3)nc2C1 [CBK287319] show?
stdout: 104

stdin: Item CCC1(CC)OC(NC[C@@H](C)c2ccccc2)=NC1=O [CBK123983] has what recorded viability at 28.5 h, 10 µM?
stdout: 116

stdin: What does the record list as viability at 28.5 h, 10 µM for Cc1cc(-c2nnc(SCC(=O)N3CCCCC3)o2)no1 [CBK268731] ?
stdout: 86.6
